Values compiled from ChEMBL document CHEMBL6114985.

assay: Metabolic stability in mouse liver microsome assessed as intrinsic clearance incubated for 120 mins by HPLC-MS/MS; type: ADME; conditions: liver microsomes, read-out: CLH
Outcome measure: microsomal CLint (µL/min/mg)
Answers are plain numbers, in µL/min/mg.

Observe how each entry below is paired with its result.
In: So what does the record say about microsomal CLint for `COc1ccc(F)c(C(=O)Nc2cncc(-c3cc(-c4cccnc4)cs3)c2)c1` ?
Out: 104

In: So what does the record say about microsomal CLint for `COc1ccc(F)c(C(=O)Nc2cncc(-c3cc(-c4cccnc4)cs3)c2)c1Cl` ?
Out: 137

The record that follows has no microsomal CLint shown yet.
In: So what does the record say about microsomal CLint for `COc1ccc(F)c(C(=O)Nc2cncc(-c3cccs3)c2)c1` ?
Out: 127

* * *

experiment: Stability in human plasma assessed as half life by HPLC-MS/MS; format: ADME, cell-free
Outcome measure: half-life

In: So what does the record say about half-life for `COc1ccc(F)c(C(=O)Nc2cncc(-c3cc(-c4cccnc4)cs3)c2)c1Cl` ?
Out: > 4 h

In: So what does the record say about half-life for `COc1ccc(F)c(C(=O)Nc2cncc(-c3cccs3)c2)c1` ?
Out: > 4 h

New cases:
In: So what does the record say about half-life for `COc1ccc(F)c(C(=O)Nc2cncc(-c3cc(-c4cccnc4)cs3)c2)c1` ?
Out: > 4 h

* * *

biological target: Dual specificity tyrosine-phosphorylation-regulated kinase 1A (Homo sapiens, UniProt Q13627)
Outcome measure: pIC50
Numbers only, as −log10 of the molar value.

In: So what does the record say about pIC50 for `COc1ccc(F)c(C(=O)Nc2cncc(-c3cc(-c4cccnc4)cs3)c2)c1` ?
Out: 7.42

* * *

Task for the reader: assign each of the following molecules its reported fraction unbound.
test: Plasma protein binding in human by rapid equilibrium dialysis based HPLC-MS/MS analysis; assay type: ADME, cell-free; details: read-out: PPB (converted)
Give bare numbers.

In: So what does the record say about fraction unbound for `COc1ccc(F)c(C(=O)Nc2cncc(-c3cccs3)c2)c1` ?
Out: 0.0165

The record that follows has no fraction unbound shown yet.
In: So what does the record say about fraction unbound for `COc1ccc(F)c(C(=O)Nc2cncc(-c3cc(-c4cccnc4)cs3)c2)c1Cl` ?
Out: 0.0029

* * *

Task for the reader: assign each of the following compounds its reported inhibition.
molecular target: UniProt Q13627; test: Inhibition of DYRK1A (unknown origin) at 25 uM incubated for 1 hr relative to control
Numbers only, in %.

Observe how each entry below is paired with its result.
In: So what does the record say about inhibition for `COc1ccc(F)c(C(=O)Nc2cc(-c3cccs3)ccn2)c1` ?
Out: 4

In: So what does the record say about inhibition for `COc1ccc(F)c(C(=O)Nc2cncc(-c3cc(-c4cccnc4)cs3)c2)c1Cl` ?
Out: 93

In: So what does the record say about inhibition for `COc1ccc(F)c(C(=O)Nc2cncc(-c3cc(-c4cccnc4)cs3)c2)c1` ?
Out: 95

Quick batch: inhibition for everything below.
1. COc1ccc(F)c(C(=O)Nc2cncc(-c3cccs3)c2)c1
2. COc1ccc(Cl)c(C(=O)Nc2cncc(-c3cc(-c4cccnc4)cs3)c2)c1F
3. COc1ccc(F)c(C(=O)Nc2cncc(-c3cc(-c4cccnc4)cs3)c2)c1F

Out:
0
95
81

* * *

assay: Plasma protein binding in mouse by rapid equilibrium dialysis based HPLC-MS/MS analysis; assay type: ADME, cell-free; conditions: read-out: PPB (converted)
Outcome measure: fraction unbound
Numbers only.

In: So what does the record say about fraction unbound for `COc1ccc(F)c(C(=O)Nc2cncc(-c3cccs3)c2)c1` ?
Out: 0.038

* * *

Task for the reader: assign each of the following compounds its reported CC50.
test: Cytotoxicity against human A549 cells infected with Herpes Simplexvirus; format: toxicity, cell-based; conditions: A549 cells infected with herpes simplex virus

In: So what does the record say about CC50 for `COc1ccc(F)c(C(=O)Nc2cncc(-c3cc(-c4cccnc4)cs3)c2)c1` ?
Out: > 15 µM

The record that follows has no CC50 shown yet.
In: So what does the record say about CC50 for `COc1ccc2c(c1)[nH]c1c(C)nccc12` ?
Out: > 20 µM

* * *

Task for the reader: assign each of the following molecules its reported selectivity ratio.
assay: Selectivity index, ratio of CC50 for human RD cells to EC50 for antiviral activity against enterovirus A71 TW/2231/98 infected in human RD cells; format: toxicity, cell-based; conditions: read-out: Ratio CC50/EC50
One number for each entry.

In: So what does the record say about selectivity ratio for `COc1ccc(F)c(C(=O)Nc2cc(-c3cccs3)ccn2)c1` ?
Out: 14

Quick batch: selectivity ratio for everything below.
1. O=C(Nc1cncc(-c2cccs2)c1)c1c(F)cc(F)cc1F
2. COc1cccc(C(=O)Nc2cncc(-c3cccs3)c2)c1F
3. COc1ccc(F)c(C(=O)Nc2cncc(-c3cc(-c4cccnc4)cs3)c2)c1

Out:
[8.4, 11.2, 2.9]

Quick batch: selectivity ratio for everything below.
1. COc1ccc(F)c(C(=O)Nc2cncc(-c3cc4ccccc4s3)c2)c1
2. COc1ccc(F)c(C(=O)Nc2cncc(-c3cccs3)c2)c1

Out:
1: 5.4; 2: 17.6

* * *

experiment: Metabolic stability in human liver microsome assessed as half life incubated for 120 mins by HPLC-MS/MS; type: ADME; details: liver microsomes
Outcome measure: half-life (min)
One number for each entry, in min.

Observe how each entry below is paired with its result.
In: So what does the record say about half-life for `COc1ccc(F)c(C(=O)Nc2cncc(-c3cc(-c4cccnc4)cs3)c2)c1Cl` ?
Out: 25

In: So what does the record say about half-life for `COc1ccc(F)c(C(=O)Nc2cncc(-c3cccs3)c2)c1` ?
Out: 31.5

The record that follows has no half-life shown yet.
In: So what does the record say about half-life for `COc1ccc(F)c(C(=O)Nc2cncc(-c3cc(-c4cccnc4)cs3)c2)c1` ?
Out: 55

* * *

Task for the reader: assign each of the following compounds its reported selectivity ratio.
experiment: Selectivity index, ratio of CC50 for human RD cells to EC50 for antiviral activity against enterovirus A71 TW/2231/98 infected in human RD cells; format: toxicity, cell-based; settings: read-out: Ratio CC50/EC50

In: So what does the record say about selectivity ratio for `COc1ccc(F)c(C(=O)Nc2cncc(-c3cc(-c4cccnc4F)cs3)c2)c1` ?
Out: > 11.5

In: So what does the record say about selectivity ratio for `COc1ccc(F)c(C(=O)Nc2cncc(-c3cc(-c4cn[nH]c4)cs3)c2)c1` ?
Out: 3.6

In: So what does the record say about selectivity ratio for `CCOC(=O)c1ccc(OCCC2CCN(c3ccc(C)nn3)CC2)cc1` ?
Out: > 16.7

Quick batch: selectivity ratio for everything below.
1. COc1cccc(C(=O)Nc2cncc(-c3cc(-c4cccnc4)cs3)c2)c1F
2. COc1ccc(F)c(C(=O)Nc2cncc(-c3cc(-c4cnccc4C)cs3)c2)c1
3. COc1ccc(Cl)c(C(=O)Nc2cncc(-c3cc(-c4cccnc4)cs3)c2)c1F

Out:
1: 3; 2: 2; 3: > 17.5

* * *

Task for the reader: assign each of the following molecules its reported half-life.
assay: Stability in mouse plasma assessed as half life by HPLC-MS/MS; format: ADME, cell-free

Observe how each entry below is paired with its result.
In: So what does the record say about half-life for `COc1ccc(F)c(C(=O)Nc2cncc(-c3cccs3)c2)c1` ?
Out: > 4 h

In: So what does the record say about half-life for `COc1ccc(F)c(C(=O)Nc2cncc(-c3cc(-c4cccnc4)cs3)c2)c1` ?
Out: > 4 h

New cases:
In: So what does the record say about half-life for `COc1ccc(F)c(C(=O)Nc2cncc(-c3cc(-c4cccnc4)cs3)c2)c1Cl` ?
Out: > 4 h

* * *

assay: Lipophilicity, logD of compound by UPLC-MS analysis; assay type: physicochemical; conditions: octanol/water
Outcome measure: logD
One number for each entry.

Observe how each entry below is paired with its result.
In: So what does the record say about logD for `COc1ccc(F)c(C(=O)Nc2cncc(-c3cc(-c4cccnc4)cs3)c2)c1` ?
Out: 3.44

In: So what does the record say about logD for `COc1ccc(F)c(C(=O)Nc2cncc(-c3cccs3)c2)c1` ?
Out: 3.52

New cases:
In: So what does the record say about logD for `COc1ccc(F)c(C(=O)Nc2cncc(-c3cc(-c4cccnc4)cs3)c2)c1Cl` ?
Out: 3.22

* * *

assay: in vitro; details: human, A549 cells
Outcome measure: selectivity ratio

In: So what does the record say about selectivity ratio for `COc1ccc(F)c(C(=O)Nc2cncc(-c3cc(-c4cccnc4)cs3)c2)c1` ?
Out: > 15

* * *

system: enterovirus D68; assay: Antiviral activity against Enterovirus D68 KY 18953 assessed as reduction in viral replication; assay type: functional, organism-based; conditions: Enterovirus D
Outcome measure: EC50

Observe how each entry below is paired with its result.
In: So what does the record say about EC50 for `COc1ccc(F)c(C(=O)Nc2cncc(-c3cc(-c4cccnc4)cs3)c2)c1Cl` ?
Out: 3.7 µM

In: So what does the record say about EC50 for `O=C(Nc1cncc(-c2cccs2)c1)c1c(F)cc(F)cc1F` ?
Out: 5.4 µM

In: So what does the record say about EC50 for `COc1ccc(F)c(C(=O)Nc2cncc(-c3cc(-c4cccnc4)cs3)c2)c1` ?
Out: 3.4 µM

New cases:
In: So what does the record say about EC50 for `COc1ccc(F)c(C(=O)Nc2cncc(-c3cccs3)c2)c1` ?
Out: 3.5 µM
